# TEST DETAILS: A CellTox Green Cytotoxicity Assay to monitor cytotoxicity in HEK293 cells - 32 hour (AID 1224881); further: nearly all actives have a fitted effect of over 40% in size
# ASSAY SETUP: CellTox Green fluorescence; series mostly up to 76.8 µM
Inconclusive results are not listed. Calls of active or inactive are those of the source. The call rests on the fitted dose curve; in most records, active means well fitted activation curve with a large enough effect in the repeat runs; inconclusive means weak or mixed curves; inactive means flat fitted curve, though single readings scatter.
API: response.call in active, inactive

Field: example entries. Status: answers known.
COMPOUND	CATEGORY LABEL
O=C(O)CC(O)C(=O)O (stereo not drawn)	inactive
C=C(C)C(=O)OCC(C)O (stereo not drawn)	inactive
CN(N=O)C(=O)N[C@@H]1[C@@H](O)[C@H](O)[C@@H](CO)O[C@@H]1O	inactive
COc1ccc2cc(S(=O)(=O)N[C@H](CC(=O)N[C@H](Cc3ccc(CN4[C@H](C)CCC[C@@H]4C)cc3)C(=O)N(C)C(C)C)c3ccc4c(c3)OCO4)ccc2c1	active
O=C1O[C@H]([C@@H](O)CO)C(O)=C1O	inactive
CCOc1ccc(NC(C)=O)cc1	inactive
O=S1(=O)OC(c2ccc(O)cc2)(c2ccc(O)cc2)c2ccccc21	inactive
NC(=O)n1c(O)c(C(=O)c2cccs2)c2cc(Cl)ccc21	inactive
C[C@](N)(Cc1ccc(O)c(O)c1)C(=O)O	inactive
CCCCC1(COC(=O)CCC(=O)O)C(=O)N(c2ccccc2)N(c2ccccc2)C1=O	inactive

What did the test return for C=C1CC[C@H](O)C/C1=C\C=C1/CCC[C@]2(C)[C@@H]([C@H](C)CCCC(C)C)CC[C@@H]12 ? inactive

What did the test return for CC(=O)Nc1c(I)c(NC(C)=O)c(I)c(C(=O)O)c1I ? inactive

What did the test return for CS(=O)(=O)OCCCCOS(C)(=O)=O ? inactive

What did the test return for COc1ccc(C(Cl)=C(c2ccc(OC)cc2)c2ccc(OC)cc2)cc1 ? inactive

What did the test return for NS(=O)(=O)O ? inactive

What did the test return for C=CCc1ccc(O)c(OC)c1 ? inactive

What did the test return for O=c1[nH]cnc2c1ncn2[C@H]1CC[C@@H](CO)O1 ? inactive

What did the test return for CC(C)c1c(C(=O)Nc2ccccc2)c(-c2ccccc2)c(-c2ccc(F)cc2)n1CC[C@@H](O)C[C@@H](O)CC(=O)O ? inactive
